procedureSummary: in vivo
conditionNotes: iv, mouse, i.v. into tail vein within 5 seconds, dosage at which 50% of the mice die, read-out: Acute Toxicity LD50 Mouse
Experimental: The following tests were carried out to determine the cardiac β-receptor blocking activity and the acute toxicity of certain compounds representative of the invention, as well as of a conventional comparison compound. […] The results of both series of tests are set forth in the table below which contains, in addition, a calculated value expressing the ratio of LD50 : DE250 for each test compound.
metricName: LD50 (mg/kg)
State the answer as a number, implicitly in mg/kg.

>>> measuredvalue("CC(=O)Nc1ccc(OCC(O)CNC(C)C)cc1 (centres unmarked) [Comparison Compound A, reference compound]")
69
>>> measuredvalue("CC(C)(C)NCC(O)COc1ccccc1N=[N+]=[N-] (centres unmarked)")
29
>>> measuredvalue("CC(C)(C)NCC(O)COc1cccc(N=[N+]=[N-])c1 (centres unmarked)")
50
>>> measuredvalue("CC(C)NCC(O)COc1ccccc1N=[N+]=[N-] (centres unmarked)")
25

### Prompt For CC(C)NCC(O)COc1cccc(N=[N+]=[N-])c1 (centres unmarked) , what is its reported LD50?
### Response 50
